- Tested on: M14 melanoma
- protocol_text: NCI tumour cell line growth inhibition, 48 h; in the data active = GI50 below about 0.43 µM; inactive = the rest
*1 amine or outer side, *2 acyl side, *3 side chain or, on linkers, in order; H or OH if unused. Where a SMILES comes first, the peptide text is derived from it. Bridges are numbered along the chain shown (N, C = ends). Roman numbers before positions name the chains, in order. [ ]: non-standard residue; d: D form. Actinocin(9to1) = Cc1c2oc3c(C)ccc(C(=O)[*:1])c3nc-2c(C(=O)[*:2])c(N)c1=O; NMeV = CN[CH](C(=O)O)C(C)C; Sar = CNCC(=O)O
A correct response names exactly one class from 1 (yes) for active, 0 (no) for inactive

C=C1C(=O)O[C@H]2[C@H]1CC/C(COC(=O)c1cn(C)c3ccccc13)=C\CC[C@@]1(C)O[C@@H]21 :: 0 (no)
CC/C=C\C[C@H](O)C/C=C1/C(=O)C=C[C@@H]1C/C=C\CCCC(=O)OC(C)C :: 0 (no)
CN(C)C[C@H]1CCn2c(c(C3=C(c4cn(C)c5ccccc45)C(=O)NC3=O)c3ccccc32)C1 :: 0 (no)
Cc1c2oc3c(C)ccc(C(=O)OC(C)C4NC(=O)C(C(C)C)N(C)C(=O)CN(C)C(=O)C5CCCN5C(=O)C(C(C)C)NC4=O)c3nc-2c(C(=O)OC(C)C2NC(=O)C(C(C)C)N(C)C(=O)CN(C)C(=O)C3CCCN3C(=O)C(C(C)C)NC2=O)c(N)c1=O (stereo not given) (I: cyclo([Sar][NMeV]TVP) / II: cyclo([Sar][NMeV]TVP); linker I:3-II:3 via Actinocin(9to1); configuration not given here) :: 1 (yes)
Oc1[nH]c(N=C2N=c3ccccc3=N2)c2ccccc12 :: 0 (no)

Input line: Please let me know the test result on file for "COc1cc(OC)cc(-c2nc3sccn3c2/C=N/N=C(N)N)c1" .
Output line: 0 (no)

Input line: Please let me know the test result on file for "COc1cc(-c2nn(-c3cccc(NC(=O)NCCNS(=O)(=O)c4ccc(Cl)cc4)c3)cc2-c2ccncc2)ccc1Cl" .
Output line: 1 (yes)

Input line: Please let me know the test result on file for "CCCCC[C@H]1CC=C2C(=O)C=C[C@@H]2CC=CCCCC(=O)O[C@@H](CCCCC)CC=C2C(=O)C=C[C@@H]2CC=CCCCC(=O)O[C@@H](CCCCC)CC=C2C(=O)C=C[C@@H]2CC=CCCCC(=O)O1" .
Output line: 1 (yes)

Input line: Please let me know the test result on file for "O=C1/C(=C/c2ccc(F)c(F)c2)CN(C(=O)C(Cl)Cl)C/C1=C\c1ccc(F)c(F)c1" .
Output line: 1 (yes)

Input line: Please let me know the test result on file for "COc1cccc(OC(=O)c2ccc(C(F)(F)F)nc2Nc2c(C)cccc2Cl)c1" .
Output line: 0 (no)

Input line: Please let me know the test result on file for "O=C1NCN(c2ccccc2)C12CCN(CCCC(c1ccc(F)cc1)c1ccc(F)cc1)CC2" .
Output line: 0 (no)

Input line: Please let me know the test result on file for "Nc1ncnc2c1c(-c1ccc(Oc3ccccc3)cc1)nn2C[C@H]1SSC[C@@H]1O" .
Output line: 1 (yes)

Input line: Please let me know the test result on file for "CCCCCCCCCCCC[N+](C)(C)Cc1ccccc1" .
Output line: 0 (no)

Input line: Please let me know the test result on file for "COc1ccc(C(C#N)=C2C=CC(=NO)C=C2)cc1" .
Output line: 0 (no)

Input line: Please let me know the test result on file for "COc1cccc(Sc2ccc([N+](=O)[O-])c3no[n+]([O-])c23)c1" .
Output line: 0 (no)
